Values compiled from PubChem BioAssay (EPA / NIEHS).

Read-out: Monokine induced gamma interferon (MIG), CXCL9 (gene 4283)
Assay: BSK_BE3C_MIG: BioMAP Diversity Plus: BE3C Assay for Monokine induced gamma interferon (MIG) Biomarker Activity (AID 2283035);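 for Outcome: MIG protein measured by ELISA in BE3C cultures after 24 h of dosing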
Conditions: primary human bronchial epithelial cells; actives raise or lower the signal
The source made the active and inactive calls. Rule for the calls: active = hit-call score of the fitted dose curve at least 0.9, where 1 is the maximum; inactive = score below 0.9.
Outcome codes: Yes = active, No = inactive

Compound: O=C(O)Cn1c(=O)n(Cc2ccc(Br)cc2F)c(=O)c2ccc(Cl)cc21
Group: No
--
Compound: Cc1occc1C(=O)Nc1ccc(C(=O)N2CCC(F)(F)/C(=C\C(=O)N3CCC(N4CCCCC4)CC3)c3ccccc32)cc1
Group: No
--
Compound: O=C1O[C@H]([C@@H](O)CO)C(O)=C1O
Group: No
--
Compound: CC/C(=C(/CC)c1ccc(O)cc1)c1ccc(O)cc1
Group: Yes
--
Compound: O=C(O)c1ccccc1-n1cc(C(=O)O)c(=O)c2cc(Nc3c(F)cc(F)cc3Cl)c(Cl)cc21
Group: No

---

Read-out: TIMP1, TIMP1 (gene 7076)
Experiment: LTEA_HepaRG_TIMP1: Life Technologies and Expression Analysis (LTEA) Assay for TIMP1 using HepaRG (AID 2283534);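 for Outcome: TaqMan qRT-PCR signal normalized to ACTB GAPDH and POLR2A housekeeping genes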
Details: mRNA level, 48 h; actives raise or lower the signal
Calls of active or inactive are those of the source. The calls were made as follows: active = hit-call score of the fitted dose curve at least 0.9, where 1 is the maximum; inactive = score below 0.9.
Outcome codes: t = active, f = inactive

Molecule: NCc1cccc(C2CCN(C(=O)c3ccc(C#Cc4ccccc4F)o3)CC2)c1
Group: t
--
Molecule: COCC(C)OCC(C)OCC(C)O (stereo not drawn)
Group: f
--
Molecule: Cc1cc(F)ccc1-c1cc(N2CC[C@@H](O)[C@H]2CO)ncc1N(C)C(=O)C(C)(C)c1cc(C(F)(F)F)cc(C(F)(F)F)c1
Group: f
--
Molecule: CCCCOC(=O)c1ccc(O)cc1
Group: f
--
Molecule: Cc1ncc(CO)c(CO)c1O
Group: f
--
Molecule: CCCCCCCCCCCCO
Group: f
--
Molecule: CCCCCCCC[Si](OCC)(OCC)OCC
Group: f
--
Molecule: CC(C)(C)c1cc(/C=C2\SC(N)=NC2=O)cc(C(C)(C)C)c1O
Group: t
--
Molecule: O=C1O[C@H]([C@@H](O)CO)C(O)=C1O
Group: f
--
Molecule: CC(C)(C)c1csc(-c2cc3cc(OCc4ccccc4CC(=O)O)ccc3o2)n1
Group: t
--
Molecule: Cc1cn([C@H]2C[C@H](N=[N+]=[N-])[C@@H](CO)O2)c(=O)[nH]c1=O
Group: f
--
Molecule: O=C=NCCCCCCN=C=O
Group: f
--
Molecule: OC12N=C(c3ccccc3)SC1Cc1cc(Cl)ccc12 (stereo not drawn)
Group: f

---

Molecular target: Hepatocyte nuclear factor 3-beta (Homo sapiens)
Assay: ATG_FoxA2_CIS: Attagene CIS-FACTORIAL HepG2 Assay for human Forkhead box A2 (FOXA2) (AID 2282942)
Settings: HepG2 cis-reporter transcription factor activity, 24 h; actives raise or lower the signal
Calls of active or inactive are those of the source. Rule for the calls: active = hit-call score of the fitted dose curve at least 0.9, where 1 is the maximum; inactive = score below 0.9.
Outcome codes: t = active, f = inactive

Molecule: CCCCCCCCCC(=O)O
Group: f
--
Molecule: NC(=O)c1nc(-c2cccc(-c3cc(F)ccc3OCC(F)(F)C(F)(F)F)c2)n[nH]1
Group: f
--
Molecule: CCCCCCCCOc1ccc(C(=O)c2ccccc2)c(O)c1
Group: f
--
Molecule: Clc1ccccc1C(c1ccccc1)(c1ccccc1)n1ccnc1
Group: f
--
Molecule: CC(O)CC(C)(C)O (centres undefined)
Group: f
--
Molecule: CC1=CC(=O)/C(=C(/C)O)C(=O)O1
Group: f
--
Molecule: Cc1cc2c(cc1C(F)(F)F)N(C(=O)Nc1ccc(Oc3cccnc3C)nc1)CC2
Group: f
--
Molecule: NCc1cccc(C2CCN(C(=O)c3ccc(C#Cc4ccccc4F)o3)CC2)c1
Group: f
--
Molecule: CN1C(=O)N(c2ccccc2Br)Cc2cnc(Nc3ccc4c(c3)OCC(CO)O4)nc21 (centres undefined)
Group: f
--
Molecule: CCO[Si](CCCNC(N)=O)(OCC)OCC
Group: f
--
Molecule: O=C1CCC(C2CCCCC2)CC1
Group: f
--
Molecule: CCCCCCCCOC(=O)c1cc(O)c(O)c(O)c1
Group: f
--
Molecule: CC(C)(c1cc(Br)c(O)c(Br)c1)c1cc(Br)c(O)c(Br)c1
Group: f
--
Molecule: CCCC(=O)OCCC(C)C
Group: f
--
Molecule: CN(C[C@@H](CC[N+]12CCC(C3CCCCC3)(CC1)CC2)c1ccc(Cl)c(Cl)c1)C(=O)c1cc(C(F)(F)F)cc(C(F)(F)F)c1
Group: f
--
Molecule: O=c1c(-c2ccc(O)cc2)coc2cc(O)cc(O)c12
Group: f
--
Molecule: Cc1ncc(CO)c(CO)c1O
Group: f
--
Molecule: CCCCCCCCCCCO
Group: f
--
Molecule: COc1cccc([C@H](O)C2CCN(CCc3ccc(F)cc3)CC2)c1OC
Group: f
--
Molecule: CC(C)(O)c1ccc(CNC(=O)c2cccnc2Oc2ccc3nonc3c2)cc1
Group: f
--
Molecule: Cc1cc(F)ccc1-c1cc(N2CC[C@@H](O)[C@H]2CO)ncc1N(C)C(=O)C(C)(C)c1cc(C(F)(F)F)cc(C(F)(F)F)c1
Group: f
--
Molecule: CCCCCc1ccc(N)cc1
Group: f
--
Molecule: CCN(Cc1cccnc1)C(=O)c1cccc(Cl)c1[C@]1(C)C(=O)N(Cc2ccc(OC)cc2OC)c2ccc(Cl)cc21
Group: f
--
Molecule: CCCCCCCC[Si](OCC)(OCC)OCC
Group: f
--
Molecule: CCOC(=O)O[C@H](C)OC(=O)c1ccc2c(c1)cc(C(=O)NC1CCN(C(C)C)CC1)n2Cc1cc(-c2ccc(Cl)s2)on1
Group: f
--
Molecule: O=C1O[C@H]([C@@H](O)CO)C(O)=C1O
Group: f
--
Molecule: c1ccc(C[n+]2cccc3ccccc32)cc1
Group: f
--
Molecule: Clc1cc(Cl)c2c(c1)N=C1CCCCCN1C2
Group: f
--
Molecule: C[C@]12CC[C@@H]3c4ccc(O)cc4CC[C@H]3[C@@H]1CC[C@H]2O
Group: f
--
Molecule: O=C(O)c1ccccc1-n1cc(C(=O)O)c(=O)c2cc(Nc3c(F)cc(F)cc3Cl)c(Cl)cc21
Group: f
--
Molecule: CC(=O)N1CCN(c2ccc(OC[C@H]3CO[C@](Cn4ccnc4)(c4ccc(Cl)cc4Cl)O3)cc2)CC1
Group: f
--
Molecule: Cc1cn([C@H]2C[C@H](N=[N+]=[N-])[C@@H](CO)O2)c(=O)[nH]c1=O
Group: f
--
Molecule: Cc1oc2c(NC(=O)c3c(Cl)cccc3Cl)cccc2c1C(C)(C)O
Group: t
--
Molecule: CC[C@H](NC(=O)c1cc(F)ccc1NS(=O)(=O)c1cccc2cccnc12)c1ccccc1
Group: f
--
Molecule: Cc1cccc2ccccc12
Group: f
--
Molecule: O=C(O)c1ccccc1C(=O)OCc1ccccc1
Group: f
--
Molecule: O=C=NCCCCCCN=C=O
Group: f
--
Molecule: COc1cc(C(=O)NC2CCN(C)CC2)ccc1Nc1ncc2c(n1)N(C1CCCC1)CC(F)(F)C(=O)N2C
Group: f
--
Molecule: CCN(CC)C(=O)c1cc(S(=O)(=O)Cc2ccccc2)c(N2CCC(c3ccccc3)CC2)cc1N(CC)CCN(C)C
Group: f
--
Molecule: O=C(OCCCCCCOC(=O)c1ccccc1)c1ccccc1
Group: f
--
Molecule: CCCCCCCCCCCC[N+](C)(C)C
Group: f
--
Molecule: Oc1ccccc1
Group: f
--
Molecule: CCCCCCCCCCCCO
Group: f
--
Molecule: Cc1c2ccccc2c(C)c2c1ccc1ccccc12
Group: f
--
Molecule: O=CCCCC=O
Group: f
--
Molecule: COc1ccc2cc(S(=O)(=O)N[C@H](CC(=O)N[C@H](Cc3ccc(CN4[C@H](C)CCC[C@@H]4C)cc3)C(=O)N(C)C(C)C)c3ccc4c(c3)OCO4)ccc2c1
Group: f
--
Molecule: CCCCOC(=O)c1ccc(O)cc1
Group: f
--
Molecule: O=C1c2ccccc2C(=O)N1CCc1noc(-c2ccc(CN3CCCCCC3)s2)n1
Group: f
--
Molecule: c1ccc2ccccc2c1
Group: f

---

Assay: CCTE_Shafer_MEA_acute_per_network_burst_electrodes_number_mean: CCTE's Neural Acute Assay for Mean Number of Electrodes in a Network Burst, Shafer Lab (AID 2284021);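 note: curves fitted for decreases only so hits reduce electrodes per burst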
Calls of active or inactive are those of the source. How the source made its calls: active means hit-call score of the fitted dose curve at least 0.9, where 1 is the maximum; inactive means score below 0.9.
Outcome codes: true (active), false (inactive)

Compound: Cc1cc2c(cc1C(F)(F)F)N(C(=O)Nc1ccc(Oc3cccnc3C)nc1)CC2
Group: false
--
Compound: CC/C(=C(/CC)c1ccc(O)cc1)c1ccc(O)cc1
Group: true
--
Compound: c1ccc2n[nH]nc2c1
Group: false
--
Compound: CC(C)(c1cc(Br)c(O)c(Br)c1)c1cc(Br)c(O)c(Br)c1
Group: false
